Target Under Test: recombinant human CCL20 (R&D Systems, #360-MP-025/CF) (human, UniProt P78556 27-96)
Sequence (P78556 other isoform, or with tags, fused parts or gaps limits assumed): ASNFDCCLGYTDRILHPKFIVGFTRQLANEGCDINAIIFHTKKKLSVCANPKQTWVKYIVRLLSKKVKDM
Protocol Description: cell-based or functional assay
Consider the following binders and their measured IC50 of chemotaxis inhibition readings.
State just the number; it will be interpreted in nM.

Binder	IC50 of chemotaxis inhibition [nM]
humanized anti-human CCL20 antibody 36LK3/42HKK2 (antibody, human IgG1, kappa, V domains shown) VH: QVQLVQSGAEVKKPGASVKVSCKASGYTFTSYWMHWVRQAPGQGLEWMGLIDPSDKYTNYNQKFKGRVTLTVDTSTSTVYMELSSLRSEDTAVYYCTRGNYGVDYGMDYWGQGTLVTVSS VL: DIQMTQSPSSLSASVGDRVTITCGASENIYGALNWYQRKPGKAPKLLIYGATNLADGVPSRFSGSGSGRDYTLTISSLQPEDFATYYCQNVLITPYTFGQGTKLEIKR	1.66

Next up:
Would you kindly share the measured IC50 of chemotaxis inhibition for humanized anti-human CCL20 antibody 36LK3/42HKK1 (antibody, human IgG1, kappa, V domains shown) VH: QVQLVQSGAEVKKPGASVKVSCKASGYTFTSYWMHWVRQAPGQGLEWMGLIDPSDKYTNYNQKFKGRVTMTRDTSTSTVYMELSSLRSEDTAVYYCARGNYGVDYGMDYWGQGTLVTVSS VL: DIQMTQSPSSLSASVGDRVTITCGASENIYGALNWYQRKPGKAPKLLIYGATNLADGVPSRFSGSGSGRDYTLTISSLQPEDFATYYCQNVLITPYTFGQGTKLEIKR ?
1.36

Where do the numbers come from? From patent US20160046707A1.
